Quick reference for RAMPO Score among some binders
# assay system: T1, His-tagged P3028 (human, also: His-tag, terminus and sequence not given here)
# T1 construct: in solution at 0.5 ug/mL over the peptide cards; found with anti-His-tag antibody and rabbit anti-mouse peroxidase (rampo); also called PGE73; not shown: His-tag
# T1 peptide: VFDEFKPLVEEPQNLIK
# test summary: PEPSCAN chip ELISA, His-P3028 in solution;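 also: score is the raw OD at 405 nm from peroxidase colour with ABTS, imaged by CCD camera before and after staining, with wells showing air bubbles set to zero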
No end group written: not given here.
Report the figure in rampo score without appending any unit label.

binder="KKLDTFFPKLSLFTER [SEQ ID NO 329]" observable="RAMPO Score" value_unit="rampo score" experimental_value=456
binder="HKLDTFFVKLSLFTER [SEQ ID NO 272]" observable="RAMPO Score" value_unit="rampo score" experimental_value=428

Next item in the queue.
Quick check: RAMPO Score of KKLDTLFVKLSLFTER [SEQ ID NO 411] ?
408

Values were extracted from patent US20170298096A1.
